- system_under_test: GDP-bound KRAS wild-type protein (Homo sapiens)
- assay: Binding to KRAS by surface plasmon resonance (SPR), dissociation constant KD
- experimental_setup: Single Cycle Kinetics, 1:1 binding model
Param label: returns yes when Kd < 0.3 nM, returns no otherwise, including exact equality.

sample_smiles=CCO[C@@H]1C[C@H]2C(=O)NC3(CCC3)C(=O)N(C)[C@@H](C(CC)CC)C(=O)N(C)[C@H](C(=O)N3CCCC3)CC(=O)N(C)[C@@H](C)C(=O)N[C@@H]([C@@H](C)CC)C(=O)N(C)CC(=O)N(C)[C@H]3C/C=C\CCN(C3=O)[C@@H](CC3CCC(F)(F)CC3)C(=O)N(C)CC(=O)N[C@@H](CCc3cc(F)c(C(F)(F)F)c(F)c3)C(=O)N2C1 group_label=yes
sample_smiles=CCO[C@@H]1C[C@H]2C(=O)NC3(CCC3)C(=O)N(C)[C@@H](C(CC)CC)C(=O)N(C)[C@H](C(=O)N(C)C)CC(=O)N(C)[C@@H](CC3CC3)C(=O)N[C@@H]([C@@H](C)CC)C(=O)N(C)CC(=O)N(C)[C@H]3C/C=C\CCN(C3=O)[C@@H](Cc3ccc(C(F)(F)F)cc3)C(=O)N(C)CC(=O)N[C@@H](CCc3ccc(Cl)c(Cl)c3)C(=O)N2C1 group_label=no
sample_smiles=CCO[C@@H]1C[C@H]2C(=O)NC3(CCC3)C(=O)N(C)[C@@H](C3CCCC3)C(=O)N(C)[C@H](C(=O)N3CCCC3)CC(=O)N(C)[C@@H](CC3CC3)C(=O)N[C@@H]([C@@H](C)CC)C(=O)N(C)CC(=O)N(C)[C@H]3C/C=C\CCN(C3=O)[C@@H](Cc3ccc(C(F)(F)F)cc3)C(=O)N(C)CC(=O)N[C@@H](CCc3cc(F)c(C(F)(F)F)c(F)c3)C(=O)N2C1 group_label=yes
sample_smiles=CCO[C@@H]1C[C@H]2C(=O)NC3(CCC3)C(=O)N(C)[C@@H](C3CCCC3)C(=O)N(C)[C@H](C(=O)N(C)C)CC(=O)N(C)[C@@H](CC(F)F)C(=O)N[C@@H]([C@@H](C)CC)C(=O)N(C)CC(=O)N(C)[C@H]3CCCCCN(C3=O)[C@@H](Cc3ccc(F)cc3)C(=O)N(C)CC(=O)N[C@@H](CCc3cc(F)c(C(F)(F)F)c(F)c3)C(=O)N2C1 group_label=yes
sample_smiles=CCCN(C)C(=O)[C@@H]1CC(=O)N(C)[C@@H](CC(C)C)C(=O)N[C@@H]([C@@H](C)CC)C(=O)N(C)CC(=O)N(C)[C@H]2C/C=C\CCN(C2=O)[C@@H](Cc2ccc(C(F)(F)F)cc2)C(=O)N(C)CC(=O)N[C@@H](CCc2cc(F)c(C(F)(F)F)c(F)c2)C(=O)N2C[C@H](OCC)C[C@H]2C(=O)NC2(COC2)C(=O)N(C)[C@@H](C2CCCC2)C(=O)N1C group_label=no

Task: In plain terms, does CCO[C@@H]1C[C@H]2C(=O)NC3(CCC3)C(=O)N(C)[C@@H](C3CCCC3)C(=O)N(C)[C@H](C(=O)N(C)CC)CC(=O)N(C)[C@@H](CC3CCCC3)C(=O)N[C@@H]([C@@H](C)CC)C(=O)N(C)CC(=O)N(C)[C@H]3C/C=C\CCN(C3=O)[C@@H](Cc3ccc(C(F)(F)F)cc3)C(=O)N(C)CC(=O)N[C@@H](CCc3ccc(C(F)(F)F)c(OC)c3)C(=O)N2C1 come in under 0.3 nM for Kd?
Output: yes

Task: Then CCO[C@@H]1C[C@H]2C(=O)NC3(CCC3)C(=O)N(C)[C@@H](C3CCCC3)C(=O)N(C)[C@H](C(=O)N3CCCCC3)CC(=O)N(C)[C@@H](CC(C)C)C(=O)N[C@@H]([C@@H](C)CC)C(=O)N(C)CC(=O)N(C)[C@H]3C/C=C\CCN(C3=O)[C@@H](Cc3ccc(C(F)(F)F)cc3)C(=O)N(C)CC(=O)N[C@@H](CCc3cc(F)c(C(F)(F)F)c(F)c3)C(=O)N2C1 ?
Output: yes

Task: Then CC[C@H](C)[C@@H]1NC(=O)[C@H](CC(C)C)N(C)C(=O)C[C@@H](C(=O)N2CCOCC2)N(C)C(=O)[C@H](C2CCCC2)N(C)C(=O)C2(CCCC2)NC(=O)[C@@H]2CCCN2C(=O)[C@H](CCc2ccc(C(F)(F)F)c(Cl)c2)NC(=O)CN(C)C(=O)[C@H](Cc2ccccc2)N2CC=CC[C@@H](C2=O)N(C)C(=O)CN(C)C1=O ?
Output: no

Task: Then CC[C@H](C)[C@@H]1NC(=O)[C@H](CC2CC2)N(C)C(=O)C[C@@H](C)N(C)C(=O)[C@H](C2CCCC2)N(C)C(=O)C2(CCC2)NC(=O)[C@H](CCC(F)F)N(C)C(=O)[C@H](CCc2cc(F)c(C(F)(F)F)c(F)c2)NC(=O)CN(C)C(=O)[C@H](Cc2ccc(C(F)(F)F)cc2)N2CC/C=C\C[C@@H](C2=O)N(C)C(=O)CN(C)C1=O ?
Output: no

Task: Then CCCN1C(=O)[C@H](C2CCCC2)N(C)C(=O)C2(CCC2)NC(=O)[C@@H]2C[C@@H](OCC)CN2C(=O)[C@H](CCc2cc(F)c(C(F)(F)F)c(F)c2)NC(=O)CN(C)C(=O)[C@H](Cc2ccc(C(F)(F)F)cc2)N2CCCC[C@@H](C2=O)N(C)C(=O)CN(C)C(=O)[C@H]([C@@H](C)CC)NC(=O)[C@H](CC)N(C)C(=O)C[C@H]1C(=O)N(C)C ?
Output: yes

Task: Then CCO[C@@H]1C[C@H]2C(=O)NC3(CCC3)C(=O)N(C)[C@@H](C3CCCC3)C(=O)N(C)[C@H](C(=O)N(C)C)CC(=O)N(C)[C@@H](CC(C)C)C(=O)N[C@@H]([C@@H](C)CC)C(=O)N(C)CC(=O)N(C)[C@H]3C/C=C\CCN(C3=O)[C@@H](Cc3ccc(C)cc3)C(=O)N(C)CC(=O)N[C@@H](CCc3cc(F)c(C(F)(F)F)c(F)c3)C(=O)N2C1 ?
Output: yes

----------
Listing of recorded pKd by entry.
- system_under_test: GDP-bound KRAS wild-type protein (Homo sapiens, UniProt P01116)
- Sequence (P01116 1-188 isoform P01116-2): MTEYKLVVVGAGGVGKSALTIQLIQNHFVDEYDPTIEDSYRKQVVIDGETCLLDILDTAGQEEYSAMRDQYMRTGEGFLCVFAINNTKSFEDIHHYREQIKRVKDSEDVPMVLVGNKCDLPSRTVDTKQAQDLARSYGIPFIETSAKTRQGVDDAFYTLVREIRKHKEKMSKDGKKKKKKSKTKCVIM
- assay: Binding to KRAS by surface plasmon resonance (SPR), dissociation constant KD
- experimental_setup: Single Cycle Kinetics, 1:1 binding model
// pKd: -log10(molar conc.)

sample_smiles=CC[C@H](C)[C@@H]1NC(=O)[C@H](CC2CC2)N(C)C(=O)C[C@@H](C(=O)N(C)CC)N(C)C(=O)[C@H](C2CCCC2)N(C)C(=O)C2(CC(C)(C)C2)NC(=O)[C@@H]2C[C@H](C)CN2C(=O)[C@H](CCc2ccc(C(F)(F)F)c(OC)c2)NC(=O)CN(C)C(=O)[C@H](Cc2ccc(C)cc2)N2CC/C=C\C[C@@H](C2=O)N(C)C(=O)CN(C)C1=O system_under_test="GDP-bound KRAS wild-type protein (Homo sapiens, UniProt P01116)" observed_property=pKd reported_measurement=9.92
sample_smiles=CCO[C@@H]1C[C@H]2C(=O)NC3(CCC3)C(=O)N(C)[C@@H](C3CCCC3)C(=O)N(C)[C@H](C(=O)N(C)C)CC(=O)N(C)[C@@H](Cc3ccccc3C#N)C(=O)N[C@@H]([C@@H](C)CC)C(=O)N(C)CC(=O)N(C)[C@H]3CCCCCN(C3=O)[C@@H](Cc3ccc(C(F)(F)F)cc3)C(=O)N(C)CC(=O)N[C@@H](CCc3cc(F)c(C(F)(F)F)c(F)c3)C(=O)N2C1 system_under_test="GDP-bound KRAS wild-type protein (Homo sapiens, UniProt P01116)" observed_property=pKd reported_measurement=9.16

Task: Hi! What's the reported pKd for CC[C@H](C)[C@@H]1NC(=O)[C@H](CC(C)C)N(C)C(=O)C[C@@H](C(=O)N(C)C)N(C)C(=O)[C@H](C2CCCC2)N(C)C(=O)C2(CCCC2)NC(=O)[C@@H]2C[C@@H](C)CN2C(=O)[C@H](CCc2cc(F)c(C(F)(F)F)c(F)c2)NC(=O)CN(C)C(=O)[C@H](Cc2ccc(C)cc2)N2CC/C=C\C[C@@H](C2=O)N(C)C(=O)CN(C)C1=O on GDP-bound KRAS wild-type protein (Homo sapiens, UniProt P01116)?
Output: 9.77

----------
- system_under_test: GDP-bound KRAS wild-type protein (Homo sapiens)
- assay: Binding to KRAS by surface plasmon resonance (SPR), dissociation constant KD
- experimental_setup: Single Cycle Kinetics
- Procedure: Surface plasmon resonance was used to analyze the binding affinity of compounds for KRAS, NRAS, and HRAS. […] The resulting sensorgram was subjected to curve fitting based on a 1:1 binding model on Biacore Insight Evaluation Software or T200 Evaluation Software, and thereby the dissociation constant KD of each compound with respect to KRAS, NRAS, and HRAS was determined. […]
Where a SMILES comes first, the peptide text is derived from it. Bridges are numbered along the chain shown (N, C = ends). [ ]: non-standard residue; d: D form. The star is where a group is joined. hPhe(3,5-F2-4-CF3) = N[C@@H](CCc1cc(F)c(C(F)(F)F)c(F)c1)C(=O)O; NPrPhe(4-CF3) = CCCN[C@@H](Cc1ccc(C(F)(F)F)cc1)C(=O)O; NMeGly(cPent) = CN[C@H](C(=O)O)C1CCCC1; αMeF = C[C@](N)(Cc1ccccc1)C(=O)O; NMeD = CN[C@@H](CC(=O)O)C(=O)O; NMeL = CN[C@@H](CC(C)C)C(=O)O; Morpholide = C1CN(*)CCO1; Aze = O=C(O)[C@@H]1CCN1; Sar = CNCC(=O)O
Param label: returns Satisfied when Kd < 0.3 nM, returns Not satisfied otherwise, including exact equality.

molecule=CCO[C@@H]1C[C@H]2C(=O)NC3(CCC3)C(=O)N(C)[C@@H]([C@H](C)CC)C(=O)N(C)[C@H](C(=O)N3CCOCC3)CC(=O)N(C)[C@@H](CC(C)C)C(=O)N[C@@H]([C@@H](C)CC)C(=O)N(C)CC(=O)N(C)[C@H]3CCCCCN(C3=O)[C@@H](Cc3ccc(C(F)(F)F)cc3)C(=O)N(C)CC(=O)N[C@@H](CCc3cc(F)c(C(F)(F)F)c(F)c3)C(=O)N2C1 group_label="Not satisfied"
molecule=CC[C@H](C)[C@@H]1NC(=O)[C@H](CC(C)C)N(C)C(=O)C[C@@H](C(=O)N(C)C)N(C)C(=O)[C@H](C2CCCC2)N(C)C(=O)C2(CCCC2)NC(=O)[C@@H]2CCCN2C(=O)[C@H](CCc2ccc(C(F)(F)F)c(Cl)c2)NC(=O)CN(C)C(=O)[C@H](Cc2ccc(F)cc2)N2CCCCC[C@@H](C2=O)N(C)C(=O)CN(C)C1=O group_label="Not satisfied"
molecule=CCO[C@@H]1C[C@H]2C(=O)NC3(CCCC3)C(=O)N(C)[C@@H](C3CCCC3)C(=O)N(C)[C@H](C(=O)N(C)C)CC(=O)N(C)[C@@H]([C@@H](C)OC)C(=O)N[C@@H]([C@@H](C)CC)C(=O)N(C)CC(=O)N(C)[C@H]3C/C=C\CCN(C3=O)[C@@H](Cc3ccc(C(F)(F)F)cc3)C(=O)N(C)CC(=O)N[C@@H](CCc3cc(F)c(C(F)(F)F)c(F)c3)C(=O)N2C1 group_label=Satisfied
molecule="CCCN1C(=O)CN(C)C(=O)[C@@H]2CCN2C(=O)[C@H]([C@@H](C)CC)NC(=O)[C@H](CC(C)C)N(C)C(=O)C[C@@H](C(=O)N2CCOCC2)N(C)C(=O)[C@H](C2CCCC2)N(C)C(=O)[C@](C)(Cc2ccccc2)NC(=O)[C@@H]2CCCN2C(=O)[C@H](CCc2cc(F)c(C(F)(F)F)c(F)c2)NC(=O)CN(C)C(=O)[C@@H]1Cc1ccc(C(F)(F)F)cc1 [PP0778] ([NMeL]I[Aze][Sar][NPrPhe(4-CF3)][Sar][hPhe(3,5-F2-4-CF3)]P[αMeF][NMeGly(cPent)][NMeD]-Morpholide; lactam N-11)" group_label="Not satisfied"

Next up:
Task: In plain terms, does CCCOC[C@H]1C(=O)N[C@@H]([C@H](C)CC)C(=O)N(CCC)CC(=O)N(C)[C@H]2C/C=C\CCN(C2=O)[C@@H](Cc2ccc(C(F)F)cc2)C(=O)N(C)CC(=O)N[C@@H](CCc2cc(F)c(C(F)(F)F)c(F)c2)C(=O)N2C[C@H](OC(C)C)C[C@H]2C(=O)N(C)C2(CCC2)C(=O)N(C)[C@@H](C(CC)CC)C(=O)N(C)[C@H](C(=O)N(C)C)CC(=O)N1C come in under 0.3 nM for Kd?
Output: Not satisfied
